target-or-system: Opioid receptors; mu & delta (Rattus norvegicus) (UniProt P33533+P33535)
Sequence (P33533 whole entry, looked up): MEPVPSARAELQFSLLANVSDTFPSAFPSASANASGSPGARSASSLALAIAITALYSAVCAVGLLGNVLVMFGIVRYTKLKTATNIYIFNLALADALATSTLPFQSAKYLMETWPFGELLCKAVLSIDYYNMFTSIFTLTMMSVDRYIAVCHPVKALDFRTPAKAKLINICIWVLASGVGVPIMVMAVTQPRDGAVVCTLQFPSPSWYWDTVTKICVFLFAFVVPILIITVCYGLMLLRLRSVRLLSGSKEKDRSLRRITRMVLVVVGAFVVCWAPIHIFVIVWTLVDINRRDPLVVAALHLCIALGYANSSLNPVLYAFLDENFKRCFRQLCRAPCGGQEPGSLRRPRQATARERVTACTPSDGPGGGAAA
Sequence (P33535 whole entry, looked up): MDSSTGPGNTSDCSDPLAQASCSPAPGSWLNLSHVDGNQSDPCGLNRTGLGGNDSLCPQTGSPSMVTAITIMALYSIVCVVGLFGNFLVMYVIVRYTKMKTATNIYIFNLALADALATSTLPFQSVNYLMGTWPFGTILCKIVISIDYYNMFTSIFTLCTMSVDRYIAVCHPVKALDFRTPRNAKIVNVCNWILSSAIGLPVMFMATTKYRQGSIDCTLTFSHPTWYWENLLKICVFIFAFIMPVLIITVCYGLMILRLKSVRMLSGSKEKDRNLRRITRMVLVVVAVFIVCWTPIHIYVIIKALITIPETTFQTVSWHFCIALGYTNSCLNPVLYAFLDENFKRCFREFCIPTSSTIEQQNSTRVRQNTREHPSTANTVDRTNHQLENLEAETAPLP
experimental-protocol: Agonist activity ratio (Ki of mu receptors compared to Ki of delta receptors).
Format: functional
Where a SMILES comes first, the peptide text is derived from it. [ ]: non-standard residue; d: D form. The star is where a group is joined. Dmt = Cc1cc(O)cc(C)c1C[C@H](N)C(=O)O; Tic = O=C(O)[C@@H]1Cc2ccccc2CN1; NHtBu = CC(C)(C)N*
A collection of compounds and their measured Ratio
parameter: Ratio

                                   compound  result_number
0  Cc1cc(O)cc(C)c1C[C@@H](C(=O)N1Cc2ccccc2C[C@H]1C(=O)NC12C[C@H]3C[C@@H](C1)C[C@@H](C2)C3)N(C)C              7
1  Cc1cc(O)cc(C)c1C[C@H](N)C(=O)N1Cc2ccccc2C[C@H]1C(=O)Nc1nn[nH]n1             53
2  Cc1cc(O)cc(C)c1C[C@H](N)C(=O)N1Cc2ccccc2C[C@@H]1C(=O)NC12C[C@H]3C[C@@H](C1)C[C@@H](C2)C3           0.01
3  COC(=O)[C@H](C)NC(=O)[C@@H]1Cc2ccccc2CN1C(=O)[C@@H](N)Cc1c(C)cc(O)cc1C (H-[Dmt]-[Tic]-Ala-OMe)             48
4  Cc1cc(O)cc(C)c1C[C@H](N)C(=O)N1Cc2ccccc2C[C@H]1C(=O)N[C@@H](C)C(=O)NC(C)(C)C (H-[Dmt]-[Tic]-Ala-NHtBu)             61
5  Cc1cc(O)cc(C)c1CC(CN)C(=O)N1Cc2ccccc2C[C@H]1C(=O)O (some centres undefined)            155
6  Cc1cc(O)cc(C)c1C[C@@H](C(=O)N1Cc2ccccc2C[C@H]1C(=O)O)N1CCCCC1           1730
7  Cc1cc(O)cc(C)c1C[C@@H](C(=O)N1Cc2ccccc2C[C@H]1C(=O)O)n1cccc1            338
8  Cc1cc(O)cc(C)c1C[C@H](N)C(=O)N1Cc2ccccc2C[C@H]1C(=O)NC12C[C@H]3C[C@@H](C1)C[C@@H](C2)C3              3

====

Organism: Cavia porcellus
experimental-protocol: Antagonistic functional bioactivity against […]-receptor from guinea pig ileum(GPI).
Where a SMILES comes first, the peptide text is derived from it. [ ]: non-standard residue; d: D form. The star is where a group is joined. Dmt = Cc1cc(O)cc(C)c1C[C@H](N)C(=O)O; Tic = O=C(O)[C@@H]1Cc2ccccc2CN1; NHtBu = CC(C)(C)N*
A collection of compounds and their measured EC50
parameter: EC50 (µM)

>>> df
                                    compound  readout_qualifier  result_number
 0  Cc1cc(O)cc(C)c1C[C@@H](C(=O)N1Cc2ccccc2C[C@H]1C(=O)NC(C)(C)C)N(C)C                  >             10
 1  CNC(=O)[C@@H]1Cc2ccccc2CN1C(=O)[C@H](Cc1c(C)cc(O)cc1C)N(C)C                  >             10
 2  Cc1cc(O)cc(C)c1C[C@@H](C(=O)N1Cc2ccccc2C[C@H]1C(=O)O)N1CCCCC1                  >             10
 3  CNC(=O)[C@@H]1Cc2ccccc2CN1C(=O)[C@@H](N)Cc1c(C)cc(O)cc1C (H-[Dmt]-[Tic]-NHMe)                  >             10
 4  Cc1cc(O)cc(C)c1C[C@@H](C(=O)N1Cc2ccccc2C[C@H]1C(=O)O)N1CCCC1                  >             10
 5  Cc1cc(O)cc(C)c1C[C@H](N)C(=O)N1Cc2ccccc2C[C@H]1CC(=O)O                  >             10
 6  Cc1cc(O)cc(C)c1C[C@H](N)C(=O)N1Cc2ccccc2C[C@H]1C(=O)N[C@@H](C)C(=O)NC(C)(C)C (H-[Dmt]-[Tic]-Ala-NHtBu)                  >             10
 7  Cc1cc(O)cc(C)c1C[C@H](N)C(=O)N1Cc2ccccc2C[C@H]1C(=O)N[C@@H](C)C(=O)NC12C[C@H]3C[C@@H](C1)C[C@@H](C2)C3                  =              1
 8  Cc1cc(O)cc(C)c1C[C@@H](C(=O)N1Cc2ccccc2C[C@H]1C(=O)NC12C[C@H]3C[C@@H](C1)C[C@@H](C2)C3)N(C)C                  =          0.016
 9  Cc1cc(O)cc(C)c1C[C@H](N)C(=O)N1Cc2ccccc2C[C@@H]1C(=O)NC12C[C@H]3C[C@@H](C1)C[C@@H](C2)C3                  =           1.68
10  Cc1cc(O)cc(C)c1C[C@H](N)C(=O)N1Cc2ccccc2C[C@H]1C(=O)NC(C)(C)C (H-[Dmt]-[Tic]-NHtBu)                  =           1.04
11  Cc1cc(O)cc(C)c1C[C@@H](C(=O)N1Cc2ccccc2C[C@@H]1C(=O)NC12C[C@H]3C[C@@H](C1)C[C@@H](C2)C3)N(C)C                  =           4.48
